Give measured pIC50 for each item. Keep answers brief.
Protocol: Cytotoxicity against KB cells was determined by crystal violet staining and spectrophotometric quantitation of dye eluted from stained cells
Type: functional, cell-based
Assay Setup: Homo sapiens
// pIC50 here means minus log10 of the molar concentration (mol/L)

# input Would you mind telling me what pIC50 value was observed for CN(C)/N=C/c1c(Cl)n(C2O[C@H](CO)[C@@H](O)C2O)c2cc(Cl)c(Cl)cc12 (single isomer, unassigned) ?
# output 4.15

# input Sample OC[C@H]1O[C@@H](n2c(Cl)nc3cc(Cl)c(Cl)cc32)C(O)[C@@H]1O (single isomer, unassigned) — what was its pIC50?
# output 3.68

# input Requested field: pIC50. Item: CO/N=C/c1c(Cl)n(C2O[C@H](CO)[C@@H](O)C2O)c2cc(Cl)c(Cl)cc12 (single isomer, unassigned)
# output 4.15
